Measured protein stability index by item
test system: Saccharomyces cerevisiae; assay: protein stability index of tFT-peptide fusion (C-terminal peptide) (PSI (0-1 scale)); higher = more stable (slower turnover); conditions: genetic background: wild type; temperature: 30 C
READOUT: protein stability index

>>> number("IHSGYTNISYTI [MCM16 C-terminal 12 aa]")
0.701
>>> number("EVLDQLEPQDSS [MCM6 C-terminal 12 aa]")
0.685
>>> number("ELDEIAASLENL [TPM1 C-terminal 12 aa]")
0.69
>>> number("VYEVVCDSVRNW [MRX21 C-terminal 12 aa]")
0.717

###

Measured protein stability index by item
system: Saccharomyces cerevisiae; assay: protein stability index of tFT-peptide fusion (C-terminal peptide) (PSI (0-1 scale)); higher = more stable (slower turnover); settings: genetic background: wild type; temperature: 30 C
READOUT: protein stability index

>>> number("SARSAARRWVRR")
0.694
>>> number("MQEMLPSRPIRH")
0.69
>>> number("WGWGGGWSGACL")
0.679
>>> number("GWGFVGGTVAAV")
0.705
>>> number("SPPPSPAPPPPP")
0.684
>>> number("SQAFPPADLRPR")
0.719
>>> number("CILYTGYDLGNV")
0.7
>>> number("DGVGRLADGRGI")
0.688
>>> number("HSRPPPSPPDPA")
0.603
>>> number("VNILKRQKRARG")
0.72
>>> number("TGSIMYDLEVDK")
0.68
>>> number("STVLGPPLGLGT")
0.69
>>> number("VLLYSGVVKFLQ")
0.586

###

Measured protein stability index by item
test system: Saccharomyces cerevisiae; assay: protein stability index of tFT-peptide fusion in deletion strain of DOA10 (PSI (0-1 scale)); higher = more stable (slower turnover)
READOUT: protein stability index

>>> number("AITLPMCPLYLR")
0.675
>>> number("CSVSLPILLFFR")
0.617
>>> number("ARTLPMCPLLLR")
0.669
>>> number("RSLRVLSPLYFR")
0.691
>>> number("GLYMCQVGCWFR")
0.641
>>> number("AITLPMCILLLR")
0.603
>>> number("CLVSLPIQLFFR")
0.658
>>> number("AITLLMCPLLLR")
0.629
>>> number("AITLPMCPLSLR")
0.665
>>> number("CLVSLPITLFFR")
0.65
>>> number("CLVSLPILLEFR")
0.638
>>> number("CLKSLPILLFFR")
0.618
>>> number("CLVSLPILLFFRY")
0.483
>>> number("GWYMCSVGCWFR")
0.601
>>> number("CLVSLPILLFTR")
0.477
>>> number("CFVSLPILLFFR")
0.579

###

tested on: Saccharomyces cerevisiae; assay: protein stability index of tFT-peptide fusion (C-terminal peptide) (PSI (0-1 scale)); higher = more stable (slower turnover); conditions: genetic background: wild type; temperature: 30 C
Measured protein stability index by item
READOUT: protein stability index

>>> number("SLDGTVHARRAH")
0.695
>>> number("PPSPSPLPPRPL")
0.717
>>> number("GGGAGVRKWRKG")
0.703
>>> number("CYGAYLVSQWGS")
0.697
>>> number("SRPPPPSIYLSI")
0.691
>>> number("DKKEEEKKSTKH")
0.703
>>> number("LLPPPSTPPRLI")
0.716
>>> number("FYLRRNILGQDC")
0.695
>>> number("FTNDMSSGRVAI")
0.692
>>> number("DACWWVDDGGVV")
0.719
>>> number("LHFGSSSSRDFM")
0.709
>>> number("SPPPLPHPPAAS")
0.698

###

test system: Saccharomyces cerevisiae; assay: protein stability index of tFT-peptide fusion (C-terminal peptide) (PSI (0-1 scale)); higher = more stable (slower turnover); conditions: genetic background: cdc53-1; temperature: 37 C
Please mark 1 (yes) if the recorded protein stability index is equal to or greater than 0.6, and 0 (no) if it falls below.

>>> class("RISGSIVVRKRS")
"1 (yes)"
>>> class("VGVVVAIGLVRM")
"0 (no)"
>>> class("PVFVLFFFSSLV")
"0 (no)"
>>> class("FVSHRRFSLFLY")
"1 (yes)"
>>> class("TFRVLFSVALLV")
"0 (no)"
>>> class("GGRREWCRGGGV")
"1 (yes)"
>>> class("TYKHIVRVNKCE")
"1 (yes)"
>>> class("NYCVFLSYLLFC")
"0 (no)"
>>> class("LVLVVFCPLWFW")
"0 (no)"
>>> class("FKKIKGKIEKKN")
"1 (yes)"
>>> class("CFFLSFNVFRLF")
"0 (no)"
>>> class("KGSKGELGVHVG")
"1 (yes)"
>>> class("MLLFVSCCVFLF")
"0 (no)"
>>> class("FSQGFRSPSECL")
"1 (yes)"
>>> class("IYTLIINKSKAQ")
"1 (yes)"
>>> class("VFLFSLLIVFFP")
"0 (no)"
>>> class("SVFSFCLCVGVV")
"0 (no)"
>>> class("MRLQLTFSILLF")
"0 (no)"
>>> class("CMAWLSVLKTLF")
"1 (yes)"
>>> class("ILFWSLLVSTIR")
"0 (no)"
>>> class("AELLMLRIFFLF")
"0 (no)"
>>> class("SLLFPLPRPLLD")
"1 (yes)"
>>> class("LWGLVWGGVWGV")
"1 (yes)"
>>> class("ESCIFLMWLTVL")
"0 (no)"
>>> class("PPSRSPLPPLLH")
"1 (yes)"
>>> class("VVSLAVVGRFLV")
"1 (yes)"
>>> class("EGGGGRFWVCVG")
"1 (yes)"
>>> class("KKNLTHSIRVQA")
"1 (yes)"
>>> class("MPQSLKKMVFLA")
"1 (yes)"
>>> class("LSPPLRHRLTPP")
"1 (yes)"
>>> class("RVRRETRLRQIA")
"1 (yes)"
>>> class("DFVFFLVSVRFR")
"0 (no)"
>>> class("FVWVVRMLVFVP")
"0 (no)"
>>> class("LIEMVTTRYRLC")
"1 (yes)"
>>> class("VVDIFLFFLFVC")
"0 (no)"
>>> class("IFCRCNSTVLLI")
"1 (yes)"
>>> class("FALPPSLLLLSA")
"0 (no)"
>>> class("PSSVKLRVPSLY")
"1 (yes)"
>>> class("KMKGLINKRKES")
"1 (yes)"
>>> class("RIRLYWVLRRLG")
"1 (yes)"
>>> class("RVVNRWGVCFLG")
"1 (yes)"
>>> class("VFAWSLYLRWAW")
"0 (no)"
>>> class("KSRLFCFVYFLL")
"0 (no)"
>>> class("DGSFCLLYMTIA")
"0 (no)"
>>> class("FFLSFRLFSILL")
"0 (no)"

###

test system: Saccharomyces cerevisiae; test: protein stability index of tFT-peptide fusion (C-terminal peptide) (PSI (0-1 scale)); higher = more stable (slower turnover); settings: genetic background: wild type; temperature: 30 C
READOUT: protein stability index

>>> result("FSKVLCSIVRGR")
0.655
>>> result("GGRPIRNTTREG")
0.655
>>> result("VFDCLCGLRPGF")
0.632
>>> result("PPPPPRAAPPPP")
0.668
>>> result("PLTTTPPTRHTP")
0.698

###

Measured protein stability index by item
test system: Saccharomyces cerevisiae; assay: protein stability index of tFT-peptide fusion in deletion strain of DAS1 (PSI (0-1 scale)); higher = more stable (slower turnover)
READOUT: protein stability index

>>> number("PDKRNELIKLLN")
0.608
>>> number("TRGAVGGWRLVG")
0.68
>>> number("PSQAASFWRVVG")
0.695
>>> number("PSLCASFWRVVG")
0.68
>>> number("RLIQPLMVQFLN")
0.598
>>> number("PSLAASFWRVVI")
0.716
>>> number("LQILRQKMNHQN")
0.701
>>> number("RKILRQKMNHQN")
0.69
>>> number("CTSCGYKDRTNN")
0.702
>>> number("RLITPLPVQFLN")
0.605
>>> number("CTSCGYKFGTNN")
0.693
>>> number("CTWCGYKFRTNN")
0.685

###

system: Saccharomyces cerevisiae; assay: protein stability index of tFT-peptide fusion (C-terminal peptide) (PSI (0-1 scale)); higher = more stable (slower turnover); settings: genetic background: cdc34-1; temperature: 37 C
READOUT: protein stability index

>>> number("PWEYSSQLVLVI")
0.0478
>>> number("SFAVSSDYLFII")
0.69
>>> number("SFFSQAIPILAA")
0.0333
>>> number("RIAIRSAVICAS")
0.306
>>> number("MLIAISASAARF")
0.452
>>> number("VCVWVDILAFCS")
0.0795
>>> number("GGMGLWCCVSVG")
0.665
>>> number("CGWFVSVGWRLG")
0.544
>>> number("GGYGAGLRSPLF")
0.709
>>> number("LRVVVGLCMCVL")
0.474
>>> number("LPSLPPPPPPPP")
0.675
>>> number("GLACNPQLLRWT")
0.692
>>> number("SFYVCVPVLWLV")
0.248
>>> number("VRHPVVVVRRVI")
0.663
>>> number("SVFWCFHVLFWS")
0.425

FYI, the data here is from the supplement of paper PMC10724198.
